# Test: Study 1: single dose cross-over pharmacokinetics, oral vs intracolonic Na.MPA
# Design: species or system male beagle dogs
# Condition summary: male, beagle, dog, in vivo, 180 mg
Metric name: half-life
Please answer using a numeric value trailed by its unit.

**Q:** What measured half-life goes with `COc1c(C)c2c(c(O)c1C/C=C(\C)CCC(=O)O)C(=O)OC2` ?
**A:** 5.55 h

* * *

# Test: Study 1: single dose cross-over pharmacokinetics, oral vs intracolonic Na.MPA
# Parameters: species or system male beagle dogs
# Condition summary: male, beagle, dog, in vivo, po, 180 mg
Metric name: Tmax
Please answer using a numeric value trailed by its unit.

**Q:** What measured Tmax goes with COc1c(C)c2c(c(O)c1C/C=C(\C)CCC(=O)O)C(=O)OC2 [Na•MPA, sodium mycophenolate] ?
**A:** 1 h
